- Test system: Staphylococcus aureus
- procedure summary: Antibacterial activity against methicillin-resistant Staphylococcus aureus 1128040 clinical isolate after 20 to 24 hrs by two-fold microdilution method
- Type: functional
Measured MIC values are reported for all entries that follow.
Unit µg/mL implied. Number only.

1) O=C1c2cccnc2C(=O)c2c1c(C(=O)OCCCCN1CCOCC1)c1ccc(Br)cn21; 0.25
2) CN1CCN(CCCCCCOC(=O)c2c3c(n4cc(Br)ccc24)C(=O)c2ncccc2C3=O)CC1; 0.063
3) O=C1c2cccnc2C(=O)c2c1c(C(=O)OCCCCCCN1CCCCC1)c1ccc(Br)cn21; 0.063

As a next step, examine the compound that follows.
### Prompt Please give the documented MIC of CN(C)CCCCCOC(=O)c1c2c(n3cc(Br)ccc13)C(=O)c1ncccc1C2=O
### Response 0.25

----------
- Test system: Staphylococcus aureus
- procedure summary: Antibacterial activity against methicillin-resistant Staphylococcus aureus 1107027 clinical isolate after 20 to 24 hrs by two-fold microdilution method
- Type: functional
value kind: MIC (µg/mL)
The reply should be a number in µg/mL, with the unit left off.

1) CN(C)CCCCCOC(=O)c1c2c(n3cc(Br)ccc13)C(=O)c1ncccc1C2=O; 0.5
2) O=C1c2cccnc2C(=O)c2c1c(C(=O)OCCCCCCN1CCCCC1)c1ccc(Br)cn21; 0.063
3) CN1CCN(CCCCCCOC(=O)c2c3c(n4cc(Br)ccc24)C(=O)c2ncccc2C3=O)CC1; 0.25

### Prompt Kindly indicate its recorded MIC. Item: O=C1c2cccnc2C(=O)c2c1c(C(=O)OCCCCN1CCOCC1)c1ccc(Br)cn21
### Response 0.25

----------
- Test system: Staphylococcus aureus
- procedure summary: Antibacterial activity against methicillin-resistant Staphylococcus aureus 523005 clinical isolate after 20 to 24 hrs by two-fold microdilution method
- Format: functional
value kind: MIC (µg/mL)
Report only the number, with the unit µg/mL understood.

Solved entries:
1. CN1CCN(CCCCCCOC(=O)c2c3c(n4cc(Br)ccc24)C(=O)c2ncccc2C3=O)CC1; 0.25
2. O=C1c2cccnc2C(=O)c2c1c(C(=O)OCCCCCN1CCOCC1)c1ccc(Br)cn21; 0.031
3. O=C1c2cccnc2C(=O)c2c1c(C(=O)OCCCCN1CCOCC1)c1ccc(Br)cn21; 0.5
4. CN(C)CCCCCOC(=O)c1c2c(n3cc(Br)ccc13)C(=O)c1ncccc1C2=O; 0.5

### Prompt Output MIC of O=C1c2cccnc2C(=O)c2c1c(C(=O)OCCCCCCN1CCCCC1)c1ccc(Br)cn21
### Response 0.125

----------
- procedure summary: Solubility of the compound in water at 25 degC measured after shaking for 4 hrs by UV method
- Assay type: physicochemical
- details: buffer, 4 h
value kind: solubility

1) O=C1c2cccnc2C(=O)c2c1c(C(=O)OCCCCN1CCOCC1)c1ccc(Br)cn21; Insoluble
2) CN(C)CCCCCOC(=O)c1c2c(n3cc(Br)ccc13)C(=O)c1ncccc1C2=O; Insoluble
3) O=C1c2cccnc2C(=O)c2c1c(C(=O)OCCCCCN1CCOCC1)c1ccc(Br)cn21; Insoluble
4) O=C1c2cccnc2C(=O)c2c1c(C(=O)OCCCCCCN1CCOCC1)c1ccc(Br)cn21; Insoluble

----------
- Test system: Escherichia coli
- procedure summary: Antibacterial activity against Escherichia coli ATCC 25922 after 20 to 24 hrs by two-fold microdilution method
- Type: functional
value kind: MIC (µg/mL)
Write the number in µg/mL without appending the unit.

1. CN1CCN(CCCCCCOC(=O)c2c3c(n4cc(Br)ccc24)C(=O)c2ncccc2C3=O)CC1; 4
2. O=C1c2cccnc2C(=O)c2c1c(C(=O)OCCN1CCCC1)c1ccc(Br)cn21; 0.5

### Prompt Look up and state reported MIC for CN1CCN(CCCCOC(=O)c2c3c(n4cc(Br)ccc24)C(=O)c2ncccc2C3=O)CC1
### Response 8

### Prompt Please look at this compound and report its MIC: O=C1c2cccnc2C(=O)c2c1c(C(=O)OCCCCN1CCCCC1)c1ccc(Br)cn21
### Response 4

### Prompt For the compound O=C1c2cccnc2C(=O)c2c1c(C(=O)OCCCN1CCCC1)c1ccc(Br)cn21 , give its measured MIC value.
### Response 0.5

### Prompt Answer with the recorded MIC for the compound listed here: O=C1c2cccnc2C(=O)c2c1c(C(=O)OCCCCCCN1CCCCC1)c1ccc(Br)cn21
### Response 2

### Prompt Find the measured MIC of CN(C)CCCCCCOC(=O)c1c2c(n3cc(Br)ccc13)C(=O)c1ncccc1C2=O and report it.
### Response 2

### Prompt Return the recorded MIC value; entry: O=C1c2cccnc2C(=O)c2c1c(C(=O)OCCCO)c1ccc(Br)cn21
### Response 8

### Prompt Give reported MIC value for CN(C)CCCOC(=O)c1c2c(n3cc(Br)ccc13)C(=O)c1ncccc1C2=O
### Response 1

### Prompt Indicate the recorded MIC value for this compound: CCOC(=O)c1c2c(n3cc(Br)ccc13)C(=O)c1nccnc1C2=O
### Response 16

----------
- Test system: Staphylococcus aureus
- procedure summary: Antibacterial activity against methicillin-resistant Staphylococcus aureus 1101016 clinical isolate after 20 to 24 hrs by two-fold microdilution method
- Assay type: functional
value kind: MIC (µg/mL)
Your answer should be a plain number; it is taken to be in µg/mL.

Example compounds with recorded MIC:
1. CN(C)CCCCCOC(=O)c1c2c(n3cc(Br)ccc13)C(=O)c1ncccc1C2=O; 0.25
2. O=C1c2cccnc2C(=O)c2c1c(C(=O)OCCCCN1CCOCC1)c1ccc(Br)cn21; 0.25
3. CN1CCN(CCCCCCOC(=O)c2c3c(n4cc(Br)ccc24)C(=O)c2ncccc2C3=O)CC1; 0.25
4. O=C1c2cccnc2C(=O)c2c1c(C(=O)OCCCCCCN1CCCCC1)c1ccc(Br)cn21; 0.063

Consider the additional compound presented here.
### Prompt For the compound O=C1c2cccnc2C(=O)c2c1c(C(=O)OCCCCCN1CCOCC1)c1ccc(Br)cn21 , report MIC.
### Response 0.031

----------
- Test system: Staphylococcus aureus
- procedure summary: Antibacterial activity against methicillin-resistant Staphylococcus aureus 1111047-1 clinical isolate after 20 to 24 hrs by two-fold microdilution method
- Format: functional
value kind: MIC (µg/mL)
Write down the numeric answer in µg/mL and omit the unit.

These solved cases illustrate the format of a correct answer.
1) CN1CCN(CCCCCCOC(=O)c2c3c(n4cc(Br)ccc24)C(=O)c2ncccc2C3=O)CC1; 1
2) O=C1c2cccnc2C(=O)c2c1c(C(=O)OCCCCN1CCOCC1)c1ccc(Br)cn21; 1
3) O=C1c2cccnc2C(=O)c2c1c(C(=O)OCCCCCN1CCOCC1)c1ccc(Br)cn21; 0.063
4) CN(C)CCCCCOC(=O)c1c2c(n3cc(Br)ccc13)C(=O)c1ncccc1C2=O; 0.5

# next compound below
### Prompt Answer with the recorded MIC of O=C1c2cccnc2C(=O)c2c1c(C(=O)OCCCCCCN1CCCCC1)c1ccc(Br)cn21 only.
### Response 0.25

----------
- System: Staphylococcus aureus
- procedure summary: Antibacterial activity against methicillin-resistant Staphylococcus aureus 1024010 clinical isolate after 20 to 24 hrs by two-fold microdilution method
- Format: functional
Attribute: log10 MIC
Each number you see is log10 of MIC, and the unit inside the log is µg/mL.

1) CN1CCN(CCCCCCOC(=O)c2c3c(n4cc(Br)ccc24)C(=O)c2ncccc2C3=O)CC1; -0.90

### Prompt Supply log10 MIC value. Item: O=C1c2cccnc2C(=O)c2c1c(C(=O)OCCCCN1CCOCC1)c1ccc(Br)cn21
### Response -0.30

----------
- Tested on: Staphylococcus aureus
- procedure summary: Antibacterial activity against methicillin-resistant Staphylococcus aureus 1212057-1 clinical isolate after 20 to 24 hrs by two-fold microdilution method
- Assay type: functional
Each entry below lists one item and its recorded MIC value.

Some molecules with recorded MIC:
1) O=C1c2cccnc2C(=O)c2c1c(C(=O)OCCCCCCN1CCOCC1)c1ccc(Br)cn21; ≤ 0.0078 µg/mL
2) O=C1c2cccnc2C(=O)c2c1c(C(=O)OCCCCN1CCOCC1)c1ccc(Br)cn21; 0.25 µg/mL
3) O=C1c2cccnc2C(=O)c2c1c(C(=O)OCCCCCCN1CCCCC1)c1ccc(Br)cn21; 0.016 µg/mL
4) CN(C)CCCCCOC(=O)c1c2c(n3cc(Br)ccc13)C(=O)c1ncccc1C2=O; 0.125 µg/mL

### Prompt For the molecule O=C1c2cccnc2C(=O)c2c1c(C(=O)OCCCCCN1CCOCC1)c1ccc(Br)cn21 , give its reported MIC.
### Response ≤ 0.0078 µg/mL

### Prompt Quick one: give measured MIC for CN1CCN(CCCCCCOC(=O)c2c3c(n4cc(Br)ccc24)C(=O)c2ncccc2C3=O)CC1
### Response 0.031 µg/mL
